B1: Peroxisome proliferator-activated receptor delta, residues 71 to 145; numbered along this chain, Q03181 (parent)
chain: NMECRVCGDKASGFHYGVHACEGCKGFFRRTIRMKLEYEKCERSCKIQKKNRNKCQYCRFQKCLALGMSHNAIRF

# Variants of: B1
# Protocol Text: abundance fitness (aPCA) (normalised: wild type 0, dead -1); higher = more abundant; growth selection in yeast, the domain comes from the species named
# Experimental Conditions: Homo sapiens
As shown below, each of these variants has a reported abundance fitness value.
Test Readout: abundance fitness

sequence_code="NMECRVCGDKASGFHYGVHACMGCKGFFRRTIRMKLEYEKCERSCKIQKKNRNKCQYCRFQKCLALGMSHNAIRF [E22M]" assay_value=-0.205
sequence_code="NMECRVCGDKASGFHYGVHACEGCKGFFRRTIRMKLEYEKCERSCKIQKKNCNKCQYCRFQKCLALGMSHNAIRF [R52C]" assay_value=-0.241
sequence_code="NMECRVCGDKASGFHYGVHACEGCKGFFRRTIRMKLEYEKCERSCKIQKKNRNKCQYCRFQKCLALGMSHNAQRF [I73Q]" assay_value=0.078
sequence_code="NMECRVCGDKASGFHYGVHACTGCKGFFRRTIRMKLEYEKCERSCKIQKKNRNKCQYCRFQKCLALGMSHNAIRF [E22T]" assay_value=-0.282
sequence_code="NMECRVCGDKASGFHYGVHACEGCKGFFRETIRMKLEYEKCERSCKIQKKNRNKCQYCRFQKCLALGMSHNAIRF [R30E]" assay_value=0.074
sequence_code="NMECRVCGDKASGFHLGVHACEGCKGFFRRTIRMKLEYEKCERSCKIQKKNRNKCQYCRFQKCLALGMSHNAIRF [Y16L]" assay_value=-0.269
sequence_code="NMECRVCGDKASGFHYQVHACEGCKGFFRRTIRMKLEYEKCERSCKIQKKNRNKCQYCRFQKCLALGMSHNAIRF [G17Q]" assay_value=-0.248
sequence_code="NMECRVCGDKASGFHYGVHAHEGCKGFFRRTIRMKLEYEKCERSCKIQKKNRNKCQYCRFQKCLALGMSHNAIRF [C21H]" assay_value=-0.714
sequence_code="NMECRVCGDKASGFHYGVHACEGCKGFFRRTIRMKLEYEKCERSLKIQKKNRNKCQYCRFQKCLALGMSHNAIRF [C45L]" assay_value=-0.766
sequence_code="NMECRVCGDKASGFHYGVHACEGCKGFFRRTIRMKLEYEKCERSCKIQKKNRNKCQYCHFQKCLALGMSHNAIRF [R59H]" assay_value=-0.005

Value source: the Human Domainome abundance scans (Beltran et al. 2025)
